meta.source: patent US20260116991A1

Biological target: T1, GPC3 endogenously expressed on HepG2 cells (UniProt P51654 25-554)
T1 construct: whole, on cells
Assay: FACS on HepG2 cells;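 also: flow cytometric binding of chimeric antibodies to cells, read as mean fluorescence intensity, EC50 obtained by curve fitting of the MFI data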
quantity: EC50 (nM)
Express your answer in nM, writing the number without its unit.

Sure, the documented EC50 for F1.83.6 human-murine chimeric antibody (antibody, human IgG1, kappa, V domains shown) VH: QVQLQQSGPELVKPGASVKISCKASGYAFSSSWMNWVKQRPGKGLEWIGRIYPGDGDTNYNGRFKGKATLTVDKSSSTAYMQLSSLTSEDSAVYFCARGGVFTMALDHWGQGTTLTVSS VL: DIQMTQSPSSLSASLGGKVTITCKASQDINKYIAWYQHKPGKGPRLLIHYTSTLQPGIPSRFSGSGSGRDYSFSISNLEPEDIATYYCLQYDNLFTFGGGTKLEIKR is 0.87

Record F4.21.16 human-murine chimeric antibody (antibody, human IgG1, kappa, V domains shown) VH: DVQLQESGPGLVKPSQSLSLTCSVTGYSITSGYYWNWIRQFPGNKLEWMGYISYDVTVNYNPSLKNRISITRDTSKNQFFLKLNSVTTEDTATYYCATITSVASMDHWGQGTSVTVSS VL: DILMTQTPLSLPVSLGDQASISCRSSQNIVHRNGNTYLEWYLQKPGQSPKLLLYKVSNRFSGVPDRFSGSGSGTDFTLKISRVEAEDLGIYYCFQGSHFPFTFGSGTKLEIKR , field EC50: 2.31

EC50 recorded for this binder, F1.41.17 human-murine chimeric antibody (antibody, human IgG1, kappa, V domains shown) VH: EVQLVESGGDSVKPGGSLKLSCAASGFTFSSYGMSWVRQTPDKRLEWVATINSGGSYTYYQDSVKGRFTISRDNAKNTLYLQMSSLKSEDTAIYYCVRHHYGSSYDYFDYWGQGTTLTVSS VL: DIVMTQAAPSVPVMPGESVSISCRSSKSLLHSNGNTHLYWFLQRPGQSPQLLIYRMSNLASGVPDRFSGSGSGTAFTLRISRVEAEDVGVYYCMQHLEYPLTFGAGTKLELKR , is 0.2

// recorded EC50 for F3.54.12 human-murine chimeric antibody (antibody, human IgG1, kappa, V domains shown) VH: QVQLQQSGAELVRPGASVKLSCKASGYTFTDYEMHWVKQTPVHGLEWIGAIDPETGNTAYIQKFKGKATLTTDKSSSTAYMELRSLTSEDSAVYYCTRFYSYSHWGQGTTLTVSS VL: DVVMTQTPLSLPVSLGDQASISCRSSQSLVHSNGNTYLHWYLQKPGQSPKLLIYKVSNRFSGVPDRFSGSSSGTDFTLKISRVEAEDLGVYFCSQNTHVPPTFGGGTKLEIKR : 0.83

The binder listed as F2.23.8 human-murine chimeric antibody (antibody, human IgG1, kappa, V domains shown) VH: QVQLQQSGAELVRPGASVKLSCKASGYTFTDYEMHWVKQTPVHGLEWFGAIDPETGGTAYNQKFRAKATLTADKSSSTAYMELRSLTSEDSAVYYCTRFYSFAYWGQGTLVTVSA VL: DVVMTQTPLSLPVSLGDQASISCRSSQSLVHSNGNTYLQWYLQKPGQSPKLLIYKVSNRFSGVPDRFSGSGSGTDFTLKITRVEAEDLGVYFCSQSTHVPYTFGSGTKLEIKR has a reported EC50 of 1.64
